Each record here notes measured protein stability index.
B1: RHOBTB3 (parent)
chain: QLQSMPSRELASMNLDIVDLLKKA

# Variants of: B1
# assay_details: protein stability index of a GFP-peptide fusion (GPS, HEK-293T) (PSI 1-6); higher = more stable;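 also: lentivirally expressed fusions sorted by FACS into six bins by GFP to DsRed ratio, PSI derived from sequencing read proportions per bin multiplied by bin number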
# condition_label: c terminus: a fixed tail appended
Form field (numeric): enter value without unit.

{"variant_annotation": "R8G", "observed_property": "protein stability index", "data_value": 3.71}
{"variant_annotation": "N14A", "observed_property": "protein stability index", "data_value": 2.87}
{"variant_annotation": "K22Y", "observed_property": "protein stability index", "data_value": 2.61}

[in] Return value of protein stability index for input D19E , no commentary.
[out] 3.37

[in] Return value of protein stability index for input A24T , no commentary.
[out] 3.95

Data origin, for the record: the supplement of paper PMC10567573
